We begin with a simple list: items and their reported Ki.
Biological target: UniProt P06795
Sequence (P06795 whole entry): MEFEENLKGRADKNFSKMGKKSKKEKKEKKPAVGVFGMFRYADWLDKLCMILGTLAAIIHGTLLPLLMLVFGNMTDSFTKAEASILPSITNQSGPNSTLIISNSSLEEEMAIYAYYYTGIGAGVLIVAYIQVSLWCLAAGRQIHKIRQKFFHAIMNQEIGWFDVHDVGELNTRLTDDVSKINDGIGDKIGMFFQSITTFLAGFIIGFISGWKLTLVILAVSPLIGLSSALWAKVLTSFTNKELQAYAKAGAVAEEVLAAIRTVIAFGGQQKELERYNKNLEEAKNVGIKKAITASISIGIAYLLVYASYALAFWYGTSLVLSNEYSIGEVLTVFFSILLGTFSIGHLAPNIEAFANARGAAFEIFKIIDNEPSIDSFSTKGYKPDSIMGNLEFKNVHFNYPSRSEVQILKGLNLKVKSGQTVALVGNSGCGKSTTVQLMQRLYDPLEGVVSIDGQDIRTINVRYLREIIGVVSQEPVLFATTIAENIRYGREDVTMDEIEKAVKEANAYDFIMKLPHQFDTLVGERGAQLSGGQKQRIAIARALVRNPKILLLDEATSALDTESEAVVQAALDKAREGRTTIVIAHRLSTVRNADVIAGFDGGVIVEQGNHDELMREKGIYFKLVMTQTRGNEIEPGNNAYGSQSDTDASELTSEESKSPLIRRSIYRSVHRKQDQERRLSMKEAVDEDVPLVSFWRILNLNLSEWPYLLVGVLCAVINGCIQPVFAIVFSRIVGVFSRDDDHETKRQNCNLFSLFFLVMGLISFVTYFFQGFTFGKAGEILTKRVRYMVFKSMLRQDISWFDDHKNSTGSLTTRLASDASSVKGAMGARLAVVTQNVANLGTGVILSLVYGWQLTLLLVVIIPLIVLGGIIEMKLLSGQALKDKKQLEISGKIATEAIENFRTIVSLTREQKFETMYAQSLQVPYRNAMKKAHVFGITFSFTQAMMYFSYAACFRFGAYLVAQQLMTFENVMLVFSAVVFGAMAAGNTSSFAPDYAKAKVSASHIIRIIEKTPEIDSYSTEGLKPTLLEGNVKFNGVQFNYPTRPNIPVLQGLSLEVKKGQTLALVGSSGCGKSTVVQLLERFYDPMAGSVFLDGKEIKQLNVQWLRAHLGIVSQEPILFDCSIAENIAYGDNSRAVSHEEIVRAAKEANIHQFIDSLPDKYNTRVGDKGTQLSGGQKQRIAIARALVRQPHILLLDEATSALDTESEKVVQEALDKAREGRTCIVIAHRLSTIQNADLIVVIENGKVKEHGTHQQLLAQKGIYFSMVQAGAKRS
Experiment: TP_TRANSPORTER: increase in Calcein-AM intracellular accumulation in mdr1b-expressing LLC-PK1 cells
I only need the number, in µM, no unit after it.

Exam item: Record lookup: for UniProt P06795, what Ki belongs to CC(C)C[C@H]1C(=O)N2CCC[C@H]2[C@]2(O)O[C@](NC(=O)[C@@H]3C=C4c5cccc6[nH]c(Br)c(c56)C[C@H]4N(C)C3)(C(C)C)C(=O)N12 [BROMOCRIPTINE] ?
Marked response: 6.39

Exam item: Record lookup: for UniProt P06795, what Ki belongs to Clc1ccccc1C(c1ccccc1)(c1ccccc1)n1ccnc1 [CLOTRIMAZOLE] ?
Marked response: 25.1

Exam item: Record lookup: for UniProt P06795, what Ki belongs to COC(=O)[C@H]1[C@H]2C[C@@H]3c4[nH]c5cc(OC)ccc5c4CCN3C[C@H]2C[C@@H](OC(=O)c2cc(OC)c(OC)c(OC)c2)[C@@H]1OC [RESERPINE] ?
Marked response: 17.9

Exam item: Record lookup: for UniProt P06795, what Ki belongs to CN1C[C@H](C(=O)N[C@]2(C)O[C@@]3(O)[C@@H]4CCCN4C(=O)[C@H](Cc4ccccc4)N3C2=O)C=C2c3cccc4[nH]cc(c34)C[C@H]21 [ERGOTAMINE] ?
Marked response: 18

Exam item: Record lookup: for UniProt P06795, what Ki belongs to CC(C)[C@@]1(NC(=O)[C@@H]2C=C3c4cccc5[nH]cc(c45)C[C@H]3N(C)C2)O[C@@]2(O)[C@@H]3CCCN3C(=O)[C@H](Cc3ccccc3)N2C1=O [ERGOCRISTINE] ?
Marked response: 15.3

Values were extracted from ChEMBL document CHEMBL2074434.
